tested on: Staphylococcus aureus; assay: microbe, parasite or virus in culture; format: functional; conditions: CCM 4516/08, 48 h
Description: Antibacterial activity against Staphylococcus aureus CCM 4516/08 after 48 hrs by microdilution broth method
Exercise: state measured MIC95 for each of the compounds provided.
Give bare numbers, in µM.

Query :: Quote MIC95 reported for CCCCCCCCCCCC[n+]1ccccc1 please.
Result :: 1.95

Please report MIC95 for every entry that follows.
1. CCCCCCCCCCCC[n+]1cccc2cc(O)ccc21.[Br-]
2. CCCCCCCCCCCCCC[N+](C)(C)Cc1ccccc1
3. CCCCCCCCCCCCCC[n+]1ccccc1

Result ::
[1.95, 0.98, 0.98]

====

Give measured MIC for each item. Keep answers brief.
tested on: Candida albicans; assay: microbe, parasite or virus in culture; format: functional; conditions: ATCC 44859, 24 h
Description: Antifungal activity against Candida albicans ATCC 44859 after 24 hrs by modified standard CSLI M27-A2 method
Answers are plain numbers, in µM.

// worked examples, MIC included
Query :: Please report the measured MIC for CCCCCCCCCCCCCC[n+]1cccc2cc(O)ccc21.[Br-]
Result :: 7.81

Query :: Please report the measured MIC for CCCCCCCCCCCCCCCC[n+]1cccc2cc(O)ccc21.[Br-]
Result :: 7.81

Query :: Please list MIC recorded for the compound CCCCCCCCCCCC[N+](C)(C)Cc1ccccc1
Result :: 0.49

Query :: Give me measured MIC, please, for this compound: CCCCCCCCCCCCCCCC[N+](C)(C)Cc1ccccc1
Result :: 3.91

Query :: Please list MIC recorded for the compound CCCCCCCCCCCC[n+]1cccc2cc(O)ccc21.[Br-]
Result :: 0.98

Each compound below has a reported value. Please supply its MIC.
1. CCCCCCCCCCCCCC[n+]1ccccc1
2. CCCCCCCCCCCC[n+]1ccccc1
3. CCCCCCCCCCCCCC[N+](C)(C)Cc1ccccc1

Result ::
1: 7.81; 2: 0.98; 3: 7.81

====

tested on: Nakaseomyces glabratus; experiment: Antifungal activity against Candida glabrata 20/I after 24 hrs by modified standard CSLI M27-A2 method; type: functional
Recorded Metric: log10(MIC) (log10 of the value in µM)
// do not treat as linear: log10 of MIC, unit µM

Consider the following illustrative entries.
Query :: Input CCCCCCCCCCCC[N+](C)(C)Cc1ccccc1 , output reported log10(MIC).
Result :: -0.31

Query :: Assign log10(MIC) to the following record: CCCCCCCCCCCCCCCC[N+](C)(C)Cc1ccccc1
Result :: 0.29

Query :: Supply recorded log10(MIC) for CCCCCCCCCCCCCC[n+]1ccccc1 here.
Result :: 0.29

# map each compound to its log10(MIC)
1. CCCCCCCCCCCC[n+]1cccc2cc(O)ccc21.[Br-]
2. CCCCCCCCCCCCCC[N+](C)(C)Cc1ccccc1
3. CCCCCCCCCCCCCC[n+]1cccc2cc(O)ccc21.[Br-]
4. CCCCCCCCCCCCCCCC[n+]1cccc2cc(O)ccc21.[Br-]
5. CCCCCCCCCCCC[n+]1ccccc1

Result ::
-0.01
0.89
0.59
0.59
-0.31

====

test system: Enterococcus sp.; assay: Bactericidal activity against Enterococcus sp. J 14365/08 after 48 hrs by microdilution broth method; type: functional; conditions: J 14365/08, 48 h, read-out: MBC>99.9
Recorded Metric: MBC (µM)
Answers are plain numbers, in µM.

Query :: Please report the measured MBC for CCCCCCCCCCCCCCCC[n+]1cccc2cc(O)ccc21.[Br-]
Result :: 7.81

Query :: Could you please provide reported MBC for CCCCCCCCCCCC[n+]1ccccc1 ? Thanks!
Result :: 3.91

Query :: For the compound CCCCCCCCCCCC[N+](C)(C)Cc1ccccc1 , report MBC.
Result :: 0.98

Query :: Tell me MBC reported for CCCCCCCCCCCCCC[n+]1cccc2cc(O)ccc21.[Br-]
Result :: 15.6

Query :: Indicate its recorded MBC; the compound in question is CCCCCCCCCCCC[n+]1cccc2cc(O)ccc21.[Br-]
Result :: 1.95

Batch: MBC for all items listed.
1. CCCCCCCCCCCCCCCC[n+]1ccccc1 [CETYLPYRIDINIUM BROMIDE]
2. CCCCCCCCCCCCCC[n+]1ccccc1
3. CCCCCCCCCCCCCCCC[N+](C)(C)Cc1ccccc1
4. CCCCCCCCCCCCCC[N+](C)(C)Cc1ccccc1

Result ::
7.81
15.6
3.91
7.81
